The measurements presented in this section are drawn from patent EP1878743A2.

Molecular target: U-II receptors (rat thoracic aorta tissue) (rat) (UniProt P49684)
Sequence (P49684 whole entry): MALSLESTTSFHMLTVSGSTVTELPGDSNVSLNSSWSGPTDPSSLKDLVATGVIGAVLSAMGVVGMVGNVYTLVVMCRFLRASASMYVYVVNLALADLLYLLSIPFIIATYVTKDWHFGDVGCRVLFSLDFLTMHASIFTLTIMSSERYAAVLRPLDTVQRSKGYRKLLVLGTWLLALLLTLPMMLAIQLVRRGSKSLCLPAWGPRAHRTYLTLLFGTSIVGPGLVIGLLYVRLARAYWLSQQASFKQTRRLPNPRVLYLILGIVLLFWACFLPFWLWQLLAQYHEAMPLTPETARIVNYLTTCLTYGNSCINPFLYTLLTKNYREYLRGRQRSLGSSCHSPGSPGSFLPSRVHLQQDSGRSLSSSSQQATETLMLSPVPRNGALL
Test: method not described; rat aorta tissue, U-II receptors
assay.metric: Kd (nM)

[[record]]
substance = "Cpa-c[D-Cys-Pal-D-Trp-Lys-Val-Cys]-Cpa-amide (SEQ ID NO: 4) (peptide)"
assay_metric = "Kd"
unit_of_measure = "nM"
value = 240


###

Consider the following pIC50 values measured on U-II Stimulation of Rat Aorta Phasic Contractions.
pIC50: −log10 of the molar value. Bridge positions count the residues as written; N and C are the ends. Square brackets hold non-standard residues; d marks the D form. Peptide text beside a SMILES is read from it. dDip = N[C@@H](C(=O)O)C(c1ccccc1)c1ccccc1; Phe(4-Cl) = N[C@@H](Cc1ccc(Cl)cc1)C(=O)O; 2Nal = N[C@@H](Cc1ccc2ccccc2c1)C(=O)O; 3Pal = N[C@@H](Cc1cccnc1)C(=O)O; Tle = CC(C)(C)[C@H](N)C(=O)O
assay.metric: pIC50

[[record]]
compound = "CC(C)[C@@H]1NC(=O)[C@H](CCCCN)NC(=O)[C@@H](Cc2c[nH]c3ccccc23)NC(=O)[C@H](Cc2c[nH]cn2)NC(=O)[C@H](NC(=O)[C@@H](N)Cc2ccc3ccccc3c2)CSSC[C@@H](C(=O)N[C@@H](C(N)=O)C(c2ccccc2)c2ccccc2)NC1=O (H-[2Nal][dC]H[dW]KVC[dDip]-NH2; disulfide 2-7; N-terminus assumed)"
assay_metric = "pIC50"
value = 5.74

[[record]]
compound = "CC(C)(C)[C@@H]1NC(=O)[C@H](CCCCN)NC(=O)[C@@H](Cc2c[nH]c3ccccc23)NC(=O)[C@H](Cc2cccnc2)NC(=O)[C@H](NC(=O)[C@@H](N)Cc2ccc(Cl)cc2)CSSC[C@@H](C(=O)N[C@@H](Cc2ccc3ccccc3c2)C(N)=O)NC1=O [Cpa-D-Cys-Pal-D-Trp-Lys-Tie-Cys-Nal-NH2] (H-[Phe(4-Cl)][dC][3Pal][dW]K[Tle]C[2Nal]-NH2; disulfide 2-7; N-terminus assumed)"
assay_metric = "pIC50"
value = 8.00

[[record]]
compound = "C[C@@H](O)[C@@H]1NC(=O)[C@H](CCCCN)NC(=O)[C@H](Cc2c[nH]c3ccccc23)NC(=O)[C@H](Cc2cccnc2)NC(=O)[C@H](NC(=O)[C@@H](N)Cc2ccc(Cl)cc2)CSSC[C@@H](C(=O)N[C@@H](Cc2ccc(Cl)cc2)C(N)=O)NC1=O"
assay_metric = "pIC50"
value = 8.70

